Target or system HCT-15: recorded GI50 listed per item.

compound	GI50
C=CC1(C(=O)O)CCC(C(C)(C)C)CC1 (stereo not drawn)	> 100 µM
CC1(C)[C@H]2CC[C@]1(C)[C@H](OC(=O)NNC(=O)O[C@@H]1C[C@@H]3CC[C@@]1(C)C3(C)C)C2	12.5 µM
Cc1nc2c(o1)/C(=N\c1ccccc1)c1nc(C)oc1/C2=N/c1ccccc1	23.4 µM
COC(=O)c1csnn1	> 100 µM
CCOc1cc(NC(C)=O)ccc1C(=O)N/N=C/c1ccco1	> 100 µM
O=C(Nc1ccc(C(F)(F)F)cc1[N+](=O)[O-])c1cccnc1	2.91 µM
c1ccc2c(c1)CCc1[nH]c3c(c1-2)-c1ccccc1CC3	48.1 µM
COC(=O)C12C3C4C5(C(=O)OC)C(C1C35C(=O)N(C(C)C)C(C)C)C42C(=O)N(C(C)C)C(C)C (stereo not drawn)	> 23.3 µM
CCSc1nc(N)c2c(-c3ccccc3)c3c(nc2n1)CCC3	> 100 µM
Nc1ncnc2c1ncn2C1CCC(CP(=O)(O)O)C1 (stereo not drawn)	> 100 µM
CCOC(=O)COc1c(OC)cc(C2C3=C(COC3=O)Oc3cc4c(cc32)OCO4)cc1OC (stereo not drawn)	0.502 µM
CCOC(C[C@H](O)[C@H]1COC(=S)S1)OCC	> 100 µM
COC(=O)c1ccccc1C#CCCCOS(C)(=O)=O	> 10 µM
O=[N+]([O-])c1ccc(-c2cc(O)c3nc4ccccc4n3c2)cc1	> 100 µM
O=C(O)c1ccccc1NS(=O)(=O)c1ccc(Cl)cc1	> 100 µM
COc1ccc(-c2cc(-c3ccco3)c(C#N)c(=O)n2C2OC(OC(=O)c3ccccc3)C(OC(=O)c3ccccc3)C2OC(=O)c2ccccc2)cc1 (stereo not drawn)	> 100 µM
CC(=O)NC(Cc1ccsc1)C(=O)O (stereo not drawn)	> 100 µM
COc1ncc(C=C(C#N)C#N)c(OC)n1	29.9 µM

###

Each entry below carries its reported GI50.
Test system: A549
test: NCI tumour cell line growth inhibition, 48 h
Activity calls are given as the source filed them. No stated cut-off is given here; in the data, active = GI50 up to about 1.1 µM and inactive = higher.

compound	GI50
O=C(O)C(Sc1ccc(Cl)cc1)Sc1ccc(Cl)cc1	29.9 µM (inactive)
CC(C)CC(NC(=O)OC(C)(C)C)C(=O)Nc1ccc(Nc2nc(F)nc(-c3c4ccccc4c4n3CCS4)n2)cc1 (stereo unspecified)	48.4 µM (inactive)
COc1cc2c3c([nH]c2c(OC)c1OC)CCN(Cc1ccccc1)C3	86.7 µM (inactive)
COc1cccc2ccc3c(c12)C(=O)OC31CCc2c(C)cccc21 (stereo unspecified)	17.1 µM (inactive)
N#CC(C#N)=Cc1c[nH]c(=O)[nH]c1=O	> 100 µM (inactive)
CCCCCCCCC(=O)CCCCCCCCC(=O)O	19.7 µM (inactive)
COc1cc2c(/C=C3/C(=O)Nc4ccc(Cl)cc43)c(Cl)[nH]c2cc1C	0.711 µM (active)
Cc1ccc2c(=O)c3cccc(CC(=O)O)c3[nH]c2c1C	> 100 µM (inactive)
O=[N+]([O-])c1ccc(-c2cc(O)c3nc4ccccc4n3c2)cc1	> 100 µM (inactive)
Nc1c(Br)cc2c(c1Br)Cc1cc(Br)ccc1-2	> 100 µM (inactive)
O=C(Nc1ccc(Cl)c(Cl)c1)OCCN1c2ccccc2Sc2ccccc21	> 10 µM (inactive)

###

Each entry below carries its reported GI50.
Test system: UACC-257
test: NCI tumour cell line growth inhibition, 48 h
Calls of active or inactive are those of the source. Cut-off read from the data, not from the text of the source: active = GI50 up to about 1.1 µM and inactive = higher.
reported_endpoint: GI50

molecule	measurement_target	recorded_result
COC(=O)C(=O)C(C(=O)C(=O)Nc1ccc([N+](=O)[O-])cc1C#N)c1nc2ccc([N+](=O)[O-])cc2nc1O (centres undefined)	UACC-257	> 100 µM (inactive)
COC(=O)[C@H](Cc1c[nH]c2ccccc12)NC(=O)OCC1OC(n2cc(C)c(=O)[nH]c2=O)CC1N=[N+]=[N-] (some centres undefined)	UACC-257	62.5 µM (inactive)
Cc1cc(O)c2c(c1O)C(=O)c1cccc(O)c1C2=O	UACC-257	> 100 µM (inactive)
Cc1ccc(NCC(=O)N2CC(=O)Nc3ccccc32)c(C)c1	UACC-257	> 100 µM (inactive)
CCOP(=O)(OCC)/C(C#N)=C/c1ccc[nH]1	UACC-257	> 100 µM (inactive)
NNC(=O)c1ccccc1NC(=O)/C(=C/c1ccccc1)NC(=O)c1ccccc1	UACC-257	71.6 µM (inactive)
COc1ccc(-c2cc(-c3ccco3)c(C#N)c(=O)n2C2OC(OC(=O)c3ccccc3)C(OC(=O)c3ccccc3)C2OC(=O)c2ccccc2)cc1 (centres undefined)	UACC-257	> 100 µM (inactive)
N/C(=N\OC(=O)NC(Cl)=C(Cl)Cl)c1cc(C(F)(F)F)cc(C(F)(F)F)c1	UACC-257	16.1 µM (inactive)
O=C(CNC(=O)OCc1ccccc1)NCCCCC(NC(=O)OCc1ccccc1)C(=O)O (centres undefined)	UACC-257	> 100 µM (inactive)

###

Tested on: MOLT-4
test: NCI tumour cell line growth inhibition, 48 h
Activity calls are given as the source filed them. Cut-off read from the data, not from the text of the source: active = GI50 up to about 1.1 µM and inactive = higher.
Classes used: active, inactive

compound	assigned_category
COc1ccc(-c2cc(-c3ccco3)c(C#N)c(=O)n2C2OC(OC(=O)c3ccccc3)C(OC(=O)c3ccccc3)C2OC(=O)c2ccccc2)cc1 (configuration not stated)	inactive
O=c1[nH]nc(Cc2ccccc2)n1/N=C/c1cccnc1	inactive
COC(=O)c1ccc2c(c1)S/C(=C/c1ccc3ccc4cccc5ccc1c3c45)S2	inactive
C=C(C)[C@@H]1CCc2c(c(C)cc(O)c(=O)c2O)C1	inactive
O=C(N/N=C\C(F)(F)F)c1ccncc1	inactive
Cc1ccc(S(=O)(=O)N(CC(O)COc2ccccc2)c2c(F)c(F)c(F)c(F)c2F)cc1 (configuration not stated)	inactive
C#CCNC(Cc1c[nH]cn1)C(=O)O (configuration not stated)	inactive
COc1cc2c(cc1OC)[C@H]1C(COC(=O)c3ccccc3)CS/C(=N/c3ccccc3)N1CC2 (some centres not stated)	inactive
O=C1c2ccccc2CCC1C(O)(C(F)(F)F)C(F)(F)F (configuration not stated)	inactive
O=C(COc1ccc(OCC(=O)N2C(=O)CN(c3ccccc3)C2=S)cc1)N1C(=O)CN(c2ccccc2)C1=S	inactive
COc1cc2c(cc1OC)C(=O)/C(=C/c1ccccc1)C2	inactive
COCCCNc1c2ccccc2nc2ccccc12	inactive
OB(O)c1ccccc1C#Cc1ccccc1B(O)O	inactive
O=C1C=C(Nc2ccccc2C(=O)CC(=O)C(=O)Nc2ccc(Cl)cc2)c2ccccc2C1=O	inactive
CC(=O)c1c2c(cc3c1CC1(Cc4cc5c(cc4C1)CCCC5)C3)CCCC2	inactive
O=S(=O)(/C=C/C=C/S(=O)(=O)c1ccccc1)c1ccccc1	active
COc1ccc2nc3cc(Cl)ccc3c(Sc3ccccc3[N+](=O)[O-])c2c1	inactive
CSc1ncnc2c1CCN2	inactive
CN(C)Cc1cc(/N=N/c2ccc(Cl)cc2)ccc1O	inactive
C=C1C(C(=O)O)C1C(=O)O (configuration not stated)	inactive
CC(=O)Nc1ccc(N2C(=O)/C(=C\c3cccc(Oc4ccccc4)c3)S(=O)(=O)C2c2ccccc2)cc1 (configuration not stated)	inactive
C[C@]12CCC3[C@@H](CC[C@@H]4c5nonc5CC[C@]34C)C1CC[C@@H]2O (some centres not stated)	inactive
Cc1nn(CN2CCN(C)CC2)c(=S)n1/N=C/c1ccc(-c2ccc(Cl)cc2Cl)o1	inactive
N#CC(C#N)=Cc1c[nH]c(=O)[nH]c1=O	inactive
O=C1NC2c3c(I)sc(I)c3C(O)C2O1 (configuration not stated)	inactive
Cc1cc2nc(N3C(=O)/C(=C/Cc4ccco4)N=C3c3ccccc3)sc2cc1C	inactive
c1ccc(CSC(SCc2ccccc2)c2ccc3c(c2)OCO3)cc1	inactive
CC(=O)/N=S(/NC(=O)c1ccc(C)cc1)C(Cl)(Cl)Cl (configuration not stated)	inactive
Cc1cn(C2CC(O)C(COP(=O)(O)OC3CC(n4c[n+]([BH2-]C#N)c5c(=O)[nH]c(N)nc54)OC3CO)O2)c(=O)[nH]c1=O (configuration not stated)	inactive
CCOP(=O)(OCC)[C@]12C[C@@H](C)C=C[C@H]1COC2=O	inactive
N#CC1=C(N)C(C#N)(C#N)C(c2ccc(F)cc2)C=C1C1CC1 (configuration not stated)	inactive
O=C(Nc1ccc(C(F)(F)F)cc1[N+](=O)[O-])c1cccnc1	inactive
O=C(c1ccccc1)c1nnc(C(=O)c2ccccc2)nn1	inactive
CCc1cccc(C)c1NS(=O)(=O)c1ccccc1	inactive
COc1ccc(/N=C(/[N-]n2c(=O)c(C)nn(C)c2=S)N(c2ccc(OC)cc2)c2n[n+]3c(=O)c(C)nn(C)c3s2)cc1	inactive
C=CC1(C(=O)O)CCC(C(C)(C)C)CC1 (configuration not stated)	inactive
Cc1cc(N=C2C=C(Br)C(=O)C(Br)=C2)cc(CN(CC(=O)O)CC(=O)O)c1O	inactive
CC(C)(C)OC(=O)NC(CSCc1ccc(C(=O)c2ccccc2)cc1)C(=O)N1CCN(CCCCN2c3ccccc3Sc3cc(N=[N+]=[N-])ccc32)CC1 (configuration not stated)	inactive
COc1ccc(Nc2ccc3ccccc3c2-c2c(O)ccc3ccccc23)cc1	inactive
COC(=O)/C=C\C(C#N)(C#N)/N=C/c1ccccc1	active
Cc1ccc(S(=O)(=O)N/N=c2/sc3ccccc3n2C)cc1	inactive
COc1ccc(/N=c2\ssc(C(=S)Nc3ccc(OC)cc3)c2S)cc1	inactive
